- Tested on: Rattus norvegicus
- method: Distribution of radioactivity was determined in lung at 24 hr after intravenous administration of [125I]-labeled 2-oleoglycerol 1,3-Bis-[omega-(3-amino-2,4,6-triiodophenyl)alkanoates] in rats
- Type: ADME, organism-based
- study.conditions: in vivo
endpoint: Distribution of radioactivity (% dose/g)

Known results for compounds:
CCCCCCCC/C=C/CCCCCCCC(=O)OC(COC(=O)Cc1c(I)cc(I)c(N)c1I)COC(=O)Cc1c(I)cc(I)c(N)c1I    0.52
CCCCCCCC/C=C/CCCCCCCC(=O)OC(COC(=O)CCCCCc1c(I)cc(I)c(N)c1I)COC(=O)CCCCCc1c(I)cc(I)c(N)c1I    0.26

[I] CCCCCCCC/C=C/CCCCCCCC(=O)OC(COC(=O)CCCCc1c(I)cc(I)c(N)c1I)COC(=O)CCCCc1c(I)cc(I)c(N)c1I
[II] CCCCCCCC/C=C/CCCCCCCC(=O)OC(COC(=O)CCCCCCc1c(I)cc(I)c(N)c1I)COC(=O)CCCCCCc1c(I)cc(I)c(N)c1I
Of I and II , whose reported Distribution of radioactivity is the larger number? Write the label of whichever entry you select.
I
(I: 0.59 % dose/g, II: 0.29 % dose/g)
